These measurements were taken from patent US20240150440A1.

biological target: SARS-CoV-2 spike protein on pseudotyped lentivirus (Wuhan Reference Pseudovirus) (SARS-CoV-2, UniProt P0DTC2 14-1273); assay: cell-based or functional assay
measured property: Pseudovirus inhibition IC50 [Cont. 1]
Enter the number, and then the unit.

Query block: Fill blank: measured Pseudovirus inhibition IC50 [Cont. 1] of the binder PP1134 MBP-4B0F-PAPA-R2d-D3-H6 (VHH, Form: Heptamer) VHH: QVQLVESGGGLVQPGGSLRLSCAASGHIFSINNAAWVRQAPGKSREGVATIHSGGGTYYSDSVKGRFTISRDNAKNTVYLQMNSLKPEDTAVYYCNAEVSTGAGSRGRVSDVYWGQGTQVTVSS is ____.
Result block: 5.99 nM

Query block: Name the reported Pseudovirus inhibition IC50 [Cont. 1] value associated with the binder PP1181 R2d-D3-PP7-H6 (VHH) VHH: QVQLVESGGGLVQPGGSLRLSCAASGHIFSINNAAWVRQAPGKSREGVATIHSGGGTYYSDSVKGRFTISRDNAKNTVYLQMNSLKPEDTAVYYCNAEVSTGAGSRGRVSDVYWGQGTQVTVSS
Result block: 5.61 nM

Query block: Reported Pseudovirus inhibition IC50 [Cont. 1] for dimeric VHH (VHH-5HVZ-MBP) R2C-F6 (VHH) VHH: QVQLVESGGGLVQPGGSLRLSCAASGRILAANIVHWYRQAPGKEREGVAGITTGGSNYYSDSVKGRFTISRDNAKNTVYLQMNSLKPEDTAVYYCNALGLGSASGSYESWGQGTQVTVSS : what is it?
Result block: 92.4 nM

Query block: What measured Pseudovirus inhibition IC50 [Cont. 1] goes with PP1156 MPB-scTRP-PAPA-R2c-F6-H6 (VHH, Form: Trimer) VHH: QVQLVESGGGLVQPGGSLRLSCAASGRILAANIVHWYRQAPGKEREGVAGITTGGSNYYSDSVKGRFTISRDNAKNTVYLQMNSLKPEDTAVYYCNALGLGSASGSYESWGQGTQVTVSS ?
Result block: 63.8 nM

Query block: Need Pseudovirus inhibition IC50 [Cont. 1] of PP1157 MPB-scTRP-PAPA-R2d-A6-H6 (VHH, Form: Trimer) VHH: QVQLVESGGGLVQPGGSLRLSCAASGSGASIGAMHWFRQAPGKGREWVASITSAGNTYYGDSVKGRFTISRDNAKNTVYLQMNSLKPEDTAVYYCNALAGANYESQWEEYNYWGQGTQVTVSS , thanks.
Result block: 54.4 nM
